# experimental target: T1, cynomolgus monkey serum albumin (cynomolgus monkey, UniProt A2V9Z4 25-608)
# T1 construct: Immobilised on SPR chips; also called cynoSA; cynomolgus albumin
# protocol details: SPR Biacore 8K+ SCK, albumin on chip, pH 7.4
pKd: −log10 of the molar value.
// reported pKd per item
measurement kind: pKd

>>> quantitative_readout("Alb23 L59A (VHH, VHH alone) VHH: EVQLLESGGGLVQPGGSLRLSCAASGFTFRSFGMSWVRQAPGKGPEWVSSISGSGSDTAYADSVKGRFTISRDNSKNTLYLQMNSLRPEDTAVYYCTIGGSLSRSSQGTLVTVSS")
7.25
>>> quantitative_readout("Alb23 T58A (VHH, VHH alone) VHH: EVQLLESGGGLVQPGGSLRLSCAASGFTFRSFGMSWVRQAPGKGPEWVSSISGSGSDALYADSVKGRFTISRDNSKNTLYLQMNSLRPEDTAVYYCTIGGSLSRSSQGTLVTVSS")
8.17
>>> quantitative_readout("Alb23 M34A (VHH, VHH alone) VHH: EVQLLESGGGLVQPGGSLRLSCAASGFTFRSFGASWVRQAPGKGPEWVSSISGSGSDTLYADSVKGRFTISRDNSKNTLYLQMNSLRPEDTAVYYCTIGGSLSRSSQGTLVTVSS")
6.74
>>> quantitative_readout("Alb23 G99A (VHH, VHH alone) VHH: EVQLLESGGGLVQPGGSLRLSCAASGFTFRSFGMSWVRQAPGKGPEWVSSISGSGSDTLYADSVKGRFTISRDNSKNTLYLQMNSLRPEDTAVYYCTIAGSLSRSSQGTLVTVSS")
6.82
>>> quantitative_readout("Alb23 G33A/S101A (VHH, VHH alone) VHH: EVQLLESGGGLVQPGGSLRLSCAASGFTFRSFAMSWVRQAPGKGPEWVSSISGSGSDTLYADSVKGRFTISRDNSKNTLYLQMNSLRPEDTAVYYCTIGGALSRSSQGTLVTVSS")
6.84
>>> quantitative_readout("Alb23 (VHH, VHH alone, injected in solution; also called VHH-Alb23_Parental (#1); Alb23 parental) VHH: EVQLLESGGGLVQPGGSLRLSCAASGFTFRSFGMSWVRQAPGKGPEWVSSISGSGSDTLYADSVKGRFTISRDNSKNTLYLQMNSLRPEDTAVYYCTIGGSLSRSSQGTLVTVSS")
8.57
>>> quantitative_readout("Alb23 G66A (VHH, VHH alone) VHH: EVQLLESGGGLVQPGGSLRLSCAASGFTFRSFGMSWVRQAPGKGPEWVSSISGSGSDTLYADSVKARFTISRDNSKNTLYLQMNSLRPEDTAVYYCTIGGSLSRSSQGTLVTVSS")
8.23
>>> quantitative_readout("Alb23 S56A (VHH, VHH alone) VHH: EVQLLESGGGLVQPGGSLRLSCAASGFTFRSFGMSWVRQAPGKGPEWVSSISGSGADTLYADSVKGRFTISRDNSKNTLYLQMNSLRPEDTAVYYCTIGGSLSRSSQGTLVTVSS")
8.44
>>> quantitative_readout("Alb23 G100A (VHH, VHH alone) VHH: EVQLLESGGGLVQPGGSLRLSCAASGFTFRSFGMSWVRQAPGKGPEWVSSISGSGSDTLYADSVKGRFTISRDNSKNTLYLQMNSLRPEDTAVYYCTIGASLSRSSQGTLVTVSS")
7.42

meta.source: patent US20260152573A1
